- protocol notes: Half life in dog
- Type: ADME, organism-based, Canis lupus familiaris
- condition: in vivo

{"smiles representation": "O=C(NC1CCCCC1)N1CCN(c2nc(-c3ccc4ccccc4n3)no2)CC1", "half-life (h)": 1.4}
{"smiles representation": "O=C(NC1CCC(F)(F)CC1)N1CCN(c2nc(-c3ccc4ccccc4n3)no2)CC1", "half-life (h)": 1.1}

---

- protocol notes: Terminal half life in rat
- Assay type: ADME, organism-based
- condition: in vivo, read-out: beta t1/2 (converted)
readout label: half-life (h)

{"smiles representation": "O=C(NC1CCCCC1)N1CCN(c2nc(-c3ccc4ccccc4n3)no2)CC1", "measure unit": "h", "experimental result": 1.1}
{"smiles representation": "Cn1c(-c2noc(C3CCN(C(=O)NC4CCCCC4)CC3)n2)nc2ccccc21", "measure unit": "h", "experimental result": 1.3}
{"smiles representation": "O=C(NC1CCC(F)(F)CC1)N1CCN(c2nc(-c3ccc4ccccc4n3)no2)CC1", "measure unit": "h", "experimental result": 1.3}
{"smiles representation": "O=C(NC1CCS(=O)(=O)CC1)N1CCC(c2nc(-c3ccc4ccccc4n3)no2)CC1", "measure unit": "h", "experimental result": 0.9}
